# Measurement notes: DRUGMATRIX: GABAA, Muscimol, Central radioligand binding (ligand: [3H] Muscimol)
# Assay type: cell membranes, Rattus norvegicus, Wistar, Brain, Membrane
# Experimental parameters: Not Active = under 50% inhibition at 10 µM
Experimental endpoint: Ki

The following molecules have reported results that may help.
Molecule: CC(=O)Oc1ccccc1C(=O)O [ASPIRIN]
Measured: Not Active
--
Molecule: C[C@@H]1C/C=C/C=C/C=C/C=C/[C@H](O[C@@H]2O[C@H](C)[C@@H](O)[C@H](N)[C@@H]2O)C[C@@H]2O[C@](O)(C[C@@H](O)C[C@H]3O[C@@H]3/C=C/C(=O)O1)C[C@H](O)[C@H]2C(=O)O [NATAMYCIN]
Measured: Not Active
--
Molecule: O=c1[nH]c(=O)n(C2CCCO2)cc1F (stereo not given) [TEGAFUR]
Measured: Not Active
--
Molecule: N=C(N)c1ccc(OCCCCCOc2ccc(C(=N)N)cc2)cc1 [PENTAMIDINE]
Measured: Not Active

# return Ki for each item in the list
1. CNC1=Nc2ccc(Cl)cc2C(c2ccccc2)=[N+]([O-])C1 [CHLORDIAZEPOXIDE]
2. CN1CCC(=C2c3ccccc3CC(=O)c3sccc32)CC1 [KETOTIFEN]
3. C[C@]12C=CC(=O)C=C1CC[C@H]1[C@@H]3C[C@@H](O)[C@](O)(C(=O)CO)[C@@]3(C)C[C@H](O)[C@@]12F [TRIAMCINOLONE]
4. CC(C)NCC(O)c1ccccc1Cl (stereo not given) [CLORPRENALINE]

## Result
Not Active
Not Active
Not Active
Not Active

# return Ki for each item in the list
1. C[C@H]1[C@H](NC(=O)/C(=N\OC(C)(C)C(=O)O)c2csc(N)n2)C(=O)N1S(=O)(=O)O [AZTREONAM]
2. C[C@]12CC[C@@H]3c4ccc(O)cc4CC[C@H]3[C@@H]1C[C@@H](O)[C@@H]2O [ESTRIOL]

## Result
["Not Active", "Not Active"]

# return Ki for each item in the list
1. O=C(c1ccccc1F)N1CCC(Cc2ccccc2)CC1
2. COc1ccnc(C[S+]([O-])c2nc3ccc(OC(F)F)cc3[nH]2)c1OC (stereo not given) [PANTOPRAZOLE]
3. O=C(O)P(=O)(O)O [FOSCARNET]

## Result
["Not Active", "Not Active", "Not Active"]

# return Ki for each item in the list
1. NC(=O)c1cccnc1 [NIACINAMIDE]
2. C[N+](C)(C)CCOC(=O)CCC(=O)OCC[N+](C)(C)C.[Cl-].[Cl-] [SUCCINYLCHOLINE CHLORIDE]
3. CCCCCCCCNC(C)C(O)c1ccc(SC(C)C)cc1 (stereo not given) [SULOCTIDIL]
4. O=C(O)COc1ccc(C(=O)c2cccs2)c(Cl)c1Cl
5. O=C(O)CC(O)(CC(=O)O)C(=O)O [CITRIC ACID]
6. Cn1c(=O)c2c(ncn2C)n(C)c1=O [CAFFEINE]
7. CCN(CC)CCNC(=O)c1ccc(N)cc1 [PROCAINAMIDE]
8. C[N+](C)(C)C[C@H](O)CC(=O)[O-] [LEVOCARNITINE]

## Result
Not Active
Not Active
Not Active
Not Active
Not Active
Not Active
Not Active
Not Active

# return Ki for each item in the list
1. C[C@]12C=CC(=O)C=C1CC[C@@H]1[C@@H]2C(=O)C[C@@]2(C)[C@H]1CC[C@]2(O)C(=O)CO [PREDNISONE]
2. CCN(CC)CCCC(C)Nc1c2ccc(Cl)cc2nc2ccc(OC)cc12 (stereo not given) [QUINACRINE]
3. CC(=O)OC[C@H]1O[C@@H](n2ncc(=O)[nH]c2=O)[C@H](OC(C)=O)[C@@H]1OC(C)=O [AZARIBINE]
4. CC[C@H]1[C@@H]2C[C@H]3[C@@H]4N(C)c5ccccc5[C@]45C[C@@H]([C@@H]2[C@H]5O)N3[C@@H]1O [AJMALINE]
5. CN(C)C(=N)NC(=N)N [METFORMIN]

## Result
["Not Active", "Not Active", "Not Active", "Not Active", "Not Active"]

# return Ki for each item in the list
1. Cc1cc(O)cc(C)c1Cl [CHLOROXYLENOL]
2. C[S+](C)[O-] [DIMETHYL SULFOXIDE]
3. O=C(O)c1ccccc1O [SALICYLIC ACID]
4. CO/N=C(\C(=O)N[C@@H]1C(=O)N2C(C(=O)O)=C(COC(C)=O)CS[C@H]12)c1csc(N)n1 [CEFOTAXIME]

## Result
1. Not Active
2. Not Active
3. Not Active
4. Not Active
